Parameter pIC50: see the listing below.
assayedTarget: PI3K/PI4K catalytic domain-containing protein (Cryptosporidium hominis)
Sequence (A0A0S4TH36 whole entry, the tested form may be a part): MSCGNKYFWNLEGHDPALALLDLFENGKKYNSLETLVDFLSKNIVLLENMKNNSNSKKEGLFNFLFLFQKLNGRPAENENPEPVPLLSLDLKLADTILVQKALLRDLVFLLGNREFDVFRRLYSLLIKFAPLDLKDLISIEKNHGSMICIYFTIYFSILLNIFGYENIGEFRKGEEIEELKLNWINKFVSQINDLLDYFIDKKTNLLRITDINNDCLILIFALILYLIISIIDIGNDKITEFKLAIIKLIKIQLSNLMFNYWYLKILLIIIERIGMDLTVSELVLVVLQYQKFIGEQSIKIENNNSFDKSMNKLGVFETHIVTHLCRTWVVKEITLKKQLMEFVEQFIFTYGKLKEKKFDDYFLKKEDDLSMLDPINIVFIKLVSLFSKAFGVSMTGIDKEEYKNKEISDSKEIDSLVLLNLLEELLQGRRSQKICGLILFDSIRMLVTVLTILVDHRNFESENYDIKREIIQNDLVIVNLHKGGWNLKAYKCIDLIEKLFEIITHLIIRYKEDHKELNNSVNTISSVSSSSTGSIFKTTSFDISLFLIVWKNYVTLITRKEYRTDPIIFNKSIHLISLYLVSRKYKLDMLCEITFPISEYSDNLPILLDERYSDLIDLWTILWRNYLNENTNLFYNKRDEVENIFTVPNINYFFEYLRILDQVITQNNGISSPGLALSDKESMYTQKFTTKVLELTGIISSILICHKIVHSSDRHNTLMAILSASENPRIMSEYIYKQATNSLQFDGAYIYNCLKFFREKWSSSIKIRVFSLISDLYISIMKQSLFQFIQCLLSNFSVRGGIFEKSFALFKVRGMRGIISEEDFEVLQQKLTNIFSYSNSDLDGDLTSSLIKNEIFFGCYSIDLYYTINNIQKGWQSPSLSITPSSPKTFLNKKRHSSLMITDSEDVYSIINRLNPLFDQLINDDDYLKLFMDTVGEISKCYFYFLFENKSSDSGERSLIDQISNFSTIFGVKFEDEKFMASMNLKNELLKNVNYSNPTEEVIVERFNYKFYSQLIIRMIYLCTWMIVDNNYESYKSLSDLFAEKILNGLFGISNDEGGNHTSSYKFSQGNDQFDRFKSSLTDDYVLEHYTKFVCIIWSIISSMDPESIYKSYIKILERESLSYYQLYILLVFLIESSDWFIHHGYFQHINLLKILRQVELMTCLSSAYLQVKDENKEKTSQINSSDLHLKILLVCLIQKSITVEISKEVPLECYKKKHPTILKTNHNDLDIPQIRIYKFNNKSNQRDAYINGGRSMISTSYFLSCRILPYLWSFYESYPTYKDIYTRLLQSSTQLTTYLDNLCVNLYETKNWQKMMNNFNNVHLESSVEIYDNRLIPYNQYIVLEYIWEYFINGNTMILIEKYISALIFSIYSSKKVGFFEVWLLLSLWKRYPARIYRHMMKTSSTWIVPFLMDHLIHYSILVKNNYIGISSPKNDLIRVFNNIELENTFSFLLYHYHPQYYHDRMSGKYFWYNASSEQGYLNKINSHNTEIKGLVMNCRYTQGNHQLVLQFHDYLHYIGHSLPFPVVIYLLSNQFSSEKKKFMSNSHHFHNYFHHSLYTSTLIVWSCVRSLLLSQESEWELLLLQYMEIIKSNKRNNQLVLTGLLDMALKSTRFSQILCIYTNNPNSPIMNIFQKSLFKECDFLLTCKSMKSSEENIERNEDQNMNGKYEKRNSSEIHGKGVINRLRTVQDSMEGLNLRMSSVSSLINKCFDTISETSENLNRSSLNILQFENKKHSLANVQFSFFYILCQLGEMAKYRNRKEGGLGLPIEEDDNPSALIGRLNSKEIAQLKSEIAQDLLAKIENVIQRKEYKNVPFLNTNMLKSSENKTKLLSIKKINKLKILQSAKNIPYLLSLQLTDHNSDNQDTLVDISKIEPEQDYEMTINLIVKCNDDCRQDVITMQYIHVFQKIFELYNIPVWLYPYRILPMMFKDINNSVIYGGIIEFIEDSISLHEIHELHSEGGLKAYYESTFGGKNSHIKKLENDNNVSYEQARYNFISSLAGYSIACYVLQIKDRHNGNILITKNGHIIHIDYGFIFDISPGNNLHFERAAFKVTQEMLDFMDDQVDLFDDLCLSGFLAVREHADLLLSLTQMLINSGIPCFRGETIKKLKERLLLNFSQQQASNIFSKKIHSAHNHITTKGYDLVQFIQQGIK
pIC50: −log10 of the molar value.
assayMetric: pIC50

> print(dat)
                                   molecule                             assayedtarget  assaymetric  result
1  CNC(=O)c1ccc(-c2cnn3ccc(C(=O)Nc4ccc(Cl)c(C(=O)OC)c4)cc23)cc1 [WO2022079616, Example 1.24]  PI3K/PI4K catalytic domain-containing protein (Cryptosporidium hominis)        pIC50  < 6.00
2  CN(C(=O)c1ccn2ncc(-c3ccc(C(N)=O)cc3)c2c1)c1ccc(Cl)c(C(=O)OCCN2CCOCC2)c1 [WO2022079616, Example 1.08]  PI3K/PI4K catalytic domain-containing protein (Cryptosporidium hominis)        pIC50  < 6.00
3  COC(=O)c1cc(Cl)ccc1N(C)C(=O)c1ccn2ncc(-c3ccc(C(N)=O)cc3)c2c1 [WO2022079616, Example 4.1]  PI3K/PI4K catalytic domain-containing protein (Cryptosporidium hominis)        pIC50    6.26

---

assayedTarget: Phosphatidylinositol 4-kinase (Cryptosporidium parvum (strain Iowa II), UniProt Q5CVD3)
Sequence (Q5CVD3 whole entry): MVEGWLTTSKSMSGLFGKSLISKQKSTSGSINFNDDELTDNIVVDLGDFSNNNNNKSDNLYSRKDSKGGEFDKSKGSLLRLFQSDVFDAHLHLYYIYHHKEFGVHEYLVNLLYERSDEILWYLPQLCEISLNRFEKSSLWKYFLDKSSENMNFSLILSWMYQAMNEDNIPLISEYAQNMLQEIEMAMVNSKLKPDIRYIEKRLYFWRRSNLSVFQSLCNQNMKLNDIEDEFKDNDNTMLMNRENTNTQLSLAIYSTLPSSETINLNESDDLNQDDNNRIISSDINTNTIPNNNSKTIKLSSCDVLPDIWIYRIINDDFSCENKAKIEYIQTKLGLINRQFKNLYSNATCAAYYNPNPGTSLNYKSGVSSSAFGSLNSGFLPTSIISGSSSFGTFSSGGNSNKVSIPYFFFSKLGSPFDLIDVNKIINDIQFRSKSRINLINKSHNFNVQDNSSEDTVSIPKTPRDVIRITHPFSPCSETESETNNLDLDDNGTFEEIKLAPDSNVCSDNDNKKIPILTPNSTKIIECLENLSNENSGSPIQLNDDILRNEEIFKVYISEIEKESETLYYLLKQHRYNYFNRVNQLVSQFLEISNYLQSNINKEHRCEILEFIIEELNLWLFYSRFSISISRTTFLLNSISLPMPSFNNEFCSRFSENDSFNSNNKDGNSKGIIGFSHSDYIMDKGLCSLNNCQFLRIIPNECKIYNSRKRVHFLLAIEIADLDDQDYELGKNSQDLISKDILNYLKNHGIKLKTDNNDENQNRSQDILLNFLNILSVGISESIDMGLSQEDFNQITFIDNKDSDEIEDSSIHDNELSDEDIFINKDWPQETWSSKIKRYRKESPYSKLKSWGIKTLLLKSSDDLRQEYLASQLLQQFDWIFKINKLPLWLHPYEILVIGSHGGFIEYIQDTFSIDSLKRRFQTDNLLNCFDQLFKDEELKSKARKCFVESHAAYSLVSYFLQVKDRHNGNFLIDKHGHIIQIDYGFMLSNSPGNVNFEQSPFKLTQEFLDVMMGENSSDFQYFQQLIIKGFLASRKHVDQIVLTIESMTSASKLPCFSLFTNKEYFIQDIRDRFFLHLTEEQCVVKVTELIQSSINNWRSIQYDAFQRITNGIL
experiment: PI(4)K enzymatic Assay
assayMetric: IC50

> print(dat)
                                    compound                             assayedtarget  assaymetric     result
 1  CNC(=O)c1ccc(-c2cnn3ccc(C(=O)N(C)c4ccc(Cl)c(C(=O)OCCN5CCOCC5)c4)cc23)cc1  Phosphatidylinositol 4-kinase (Cryptosporidium parvum (strain Iowa II), UniProt Q5CVD3)         IC50   < 100 nM
 2  CNC(=O)c1ccc(-c2cnn3ccc(C(=O)N(C)c4ccc(Cl)c(C(=O)OC)c4)cc23)cc1  Phosphatidylinositol 4-kinase (Cryptosporidium parvum (strain Iowa II), UniProt Q5CVD3)         IC50   < 100 nM
 3  CCOC(=O)c1cc(N(C)C(=O)c2ccn3ncc(-c4ccc(C(N)=O)cc4)c3c2)ccc1Cl  Phosphatidylinositol 4-kinase (Cryptosporidium parvum (strain Iowa II), UniProt Q5CVD3)         IC50   < 100 nM
 4  COC(=O)c1cc(N(C)C(=O)c2ccn3ncc(-c4ccc(C(N)=O)cc4)c3c2)ccc1C#N  Phosphatidylinositol 4-kinase (Cryptosporidium parvum (strain Iowa II), UniProt Q5CVD3)         IC50     550 nM
 5  CN(C(=O)c1ccn2ncc(-c3ccc(C(N)=O)cc3)c2c1)c1ccc(Cl)c(C(=O)OCCN2CCOCC2)c1  Phosphatidylinositol 4-kinase (Cryptosporidium parvum (strain Iowa II), UniProt Q5CVD3)         IC50   < 100 nM
 6  CC(C)COC(=O)c1cc(N(C)C(=O)c2ccn3ncc(-c4ccc(C(N)=O)cc4)c3c2)ccc1Cl  Phosphatidylinositol 4-kinase (Cryptosporidium parvum (strain Iowa II), UniProt Q5CVD3)         IC50   < 100 nM
 7  CN(C(=O)c1ccn2ncc(-c3ccc(C(N)=O)cc3)c2c1)c1ccc(Cl)c(C(=O)O)c1  Phosphatidylinositol 4-kinase (Cryptosporidium parvum (strain Iowa II), UniProt Q5CVD3)         IC50   < 100 nM
 8  CSCCOC(=O)c1cc(N(C)C(=O)c2ccn3ncc(-c4ccc(C(N)=O)cc4)c3c2)ccc1Cl  Phosphatidylinositol 4-kinase (Cryptosporidium parvum (strain Iowa II), UniProt Q5CVD3)         IC50   < 100 nM
 9  CNC(=O)c1ccc(-c2cnn3ccc(C(=O)N(C)c4ccc(Cl)c(C(=O)OC)c4)cc23)cc1C  Phosphatidylinositol 4-kinase (Cryptosporidium parvum (strain Iowa II), UniProt Q5CVD3)         IC50     550 nM
10  CC(C)OC(=O)c1cc(N(C)C(=O)c2ccn3ncc(-c4ccc(C(N)=O)cc4)c3c2)ccc1Cl  Phosphatidylinositol 4-kinase (Cryptosporidium parvum (strain Iowa II), UniProt Q5CVD3)         IC50   < 100 nM
11  COC(=O)c1cc(Cl)ccc1N(C)C(=O)c1ccn2ncc(-c3ccc(C(N)=O)cc3)c2c1  Phosphatidylinositol 4-kinase (Cryptosporidium parvum (strain Iowa II), UniProt Q5CVD3)         IC50   < 100 nM
12  COCCOC(=O)c1cc(N(C)C(=O)c2ccn3ncc(-c4ccc(C(N)=O)cc4)c3c2)ccc1Cl  Phosphatidylinositol 4-kinase (Cryptosporidium parvum (strain Iowa II), UniProt Q5CVD3)         IC50   < 100 nM
13  COC(=O)c1cc(N(C)C(=O)c2ccn3ncc(-c4ccc(C(N)=O)cc4C)c3c2)ccc1Cl  Phosphatidylinositol 4-kinase (Cryptosporidium parvum (strain Iowa II), UniProt Q5CVD3)         IC50   < 100 nM
14  CNC(=O)c1ccc(-c2cnn3ccc(C(=O)N(C)c4ccc(Cl)c(C(=O)OC(C)(C)C)c4)cc23)cc1  Phosphatidylinositol 4-kinase (Cryptosporidium parvum (strain Iowa II), UniProt Q5CVD3)         IC50   < 100 nM
15  CCOC(=O)OC(C)OC(=O)c1cc(N(C)C(=O)c2ccn3ncc(-c4ccc(C(N)=O)cc4)c3c2)ccc1Cl (racemic)  Phosphatidylinositol 4-kinase (Cryptosporidium parvum (strain Iowa II), UniProt Q5CVD3)         IC50     550 nM
16  CNC(=O)c1ccc(-c2cnn3ccc(C(=O)Nc4ccc(Cl)c(C(=O)OC)c4)cc23)cc1  Phosphatidylinositol 4-kinase (Cryptosporidium parvum (strain Iowa II), UniProt Q5CVD3)         IC50  > 1000 nM
17  CNC(=O)c1ccc(-c2cnn3cnc(C(=O)N(C)c4ccc(Cl)c(C(=O)OC)c4)cc23)cc1  Phosphatidylinositol 4-kinase (Cryptosporidium parvum (strain Iowa II), UniProt Q5CVD3)         IC50   < 100 nM
18  COC(=O)c1cc(N(C)C(=O)c2ccn3ncc(-c4ccc(C(N)=O)cc4)c3c2)ccc1OC(F)(F)F  Phosphatidylinositol 4-kinase (Cryptosporidium parvum (strain Iowa II), UniProt Q5CVD3)         IC50   < 100 nM
19  CN(C)C(=O)COC(=O)c1cc(N(C)C(=O)c2ccn3ncc(-c4ccc(C(N)=O)cc4)c3c2)ccc1Cl  Phosphatidylinositol 4-kinase (Cryptosporidium parvum (strain Iowa II), UniProt Q5CVD3)         IC50   < 100 nM
20  CNC(=O)c1ccc(-c2cnc3cnc(C(=O)N(C)c4ccc(Cl)c(C(=O)OC)c4)cn23)cc1  Phosphatidylinositol 4-kinase (Cryptosporidium parvum (strain Iowa II), UniProt Q5CVD3)         IC50   < 100 nM
21  CNC(=O)c1ccc(-c2cnn3ccc(C(=O)N(C)c4ccc(OC(F)(F)F)c(C(=O)OC)c4)cc23)cc1  Phosphatidylinositol 4-kinase (Cryptosporidium parvum (strain Iowa II), UniProt Q5CVD3)         IC50   < 100 nM
22  CN(C(=O)c1ccn2ncc(-c3ccc(C(N)=O)cc3)c2c1)c1ccc(Cl)c(C(=O)OCC(F)(F)F)c1  Phosphatidylinositol 4-kinase (Cryptosporidium parvum (strain Iowa II), UniProt Q5CVD3)         IC50   < 100 nM
23  COC(=O)c1cc(NC(=O)c2ccn3ncc(-c4ccc(C(N)=O)cc4)c3c2)ccc1Cl  Phosphatidylinositol 4-kinase (Cryptosporidium parvum (strain Iowa II), UniProt Q5CVD3)         IC50  > 1000 nM
24  CN(C(=O)c1ccn2ncc(-c3ccc(C(N)=O)cc3)c2c1)c1ccc(Cl)c(C(=O)OC(C)(C)C)c1  Phosphatidylinositol 4-kinase (Cryptosporidium parvum (strain Iowa II), UniProt Q5CVD3)         IC50   < 100 nM
25  CN(C(=O)c1ccn2ncc(-c3ccc(C(N)=O)cc3)c2c1)c1ccc(Cl)c(C(=O)OCC2CCCO2)c1 (racemic)  Phosphatidylinositol 4-kinase (Cryptosporidium parvum (strain Iowa II), UniProt Q5CVD3)         IC50   < 100 nM
26  COC(=O)COC(=O)c1cc(N(C)C(=O)c2ccn3ncc(-c4ccc(C(N)=O)cc4)c3c2)ccc1Cl  Phosphatidylinositol 4-kinase (Cryptosporidium parvum (strain Iowa II), UniProt Q5CVD3)         IC50   < 100 nM
27  CNC(=O)c1ccc(-c2cnn3ccc(C(=O)N(C)c4ccc(Cl)c(C(=O)O)c4)cc23)cc1  Phosphatidylinositol 4-kinase (Cryptosporidium parvum (strain Iowa II), UniProt Q5CVD3)         IC50   < 100 nM

---

pIC50: −log10 of the molar value.
Here we list compounds with their recorded pIC50 when tested on PI3K/PI4K catalytic domain-containing protein (Cryptosporidium hominis).
assayMetric: pIC50

> print(dat)
                                entrysmiles                             assayedtarget  result
1  CNC(=O)c1ccc(-c2cnn3ccc(C(=O)N(C)c4ccc(Cl)c(C(=O)OC)c4)cc23)cc1  PI3K/PI4K catalytic domain-containing protein (Cryptosporidium hominis)    6.26
2  COC(=O)c1cc(N(C)C(=O)c2ccn3ncc(-c4ccc(C(N)=O)cc4)c3c2)ccc1OC(F)(F)F  PI3K/PI4K catalytic domain-containing protein (Cryptosporidium hominis)  < 6.00
3  CNC(=O)c1ccc(-c2cnn3ccc(C(=O)N(C)c4ccc(Cl)c(C(=O)O)c4)cc23)cc1  PI3K/PI4K catalytic domain-containing protein (Cryptosporidium hominis)    6.26
4  COC(=O)c1cc(N(C)C(=O)c2ccn3ncc(-c4ccc(C(N)=O)cc4C)c3c2)ccc1Cl  PI3K/PI4K catalytic domain-containing protein (Cryptosporidium hominis)  < 6.00
5  CNC(=O)c1ccc(-c2cnn3ccc(C(=O)N(C)c4ccc(Cl)c(C(=O)OC)c4)cc23)cc1C  PI3K/PI4K catalytic domain-containing protein (Cryptosporidium hominis)  < 6.00
6  CNC(=O)c1ccc(-c2cnn3cnc(C(=O)N(C)c4ccc(Cl)c(C(=O)OC)c4)cc23)cc1  PI3K/PI4K catalytic domain-containing protein (Cryptosporidium hominis)  < 6.00
7  CNC(=O)c1ccc(-c2cnc3cnc(C(=O)N(C)c4ccc(Cl)c(C(=O)OC)c4)cn23)cc1  PI3K/PI4K catalytic domain-containing protein (Cryptosporidium hominis)  < 6.00
8  COC(=O)c1cc(NC(=O)c2ccn3ncc(-c4ccc(C(N)=O)cc4)c3c2)ccc1Cl  PI3K/PI4K catalytic domain-containing protein (Cryptosporidium hominis)  < 6.00
